biological target: human TRPC3 ion channel (Homo sapiens (Human)); assay: Inhibition of TRPC3 FLIPR Assay (membrane potential dye, OAG challenge); details: TRPC3 transfected AD293 cells, OAG at EC80; most potent isolated isomer; mean of minimum 2 experiments
Sequence (Q13507 whole entry): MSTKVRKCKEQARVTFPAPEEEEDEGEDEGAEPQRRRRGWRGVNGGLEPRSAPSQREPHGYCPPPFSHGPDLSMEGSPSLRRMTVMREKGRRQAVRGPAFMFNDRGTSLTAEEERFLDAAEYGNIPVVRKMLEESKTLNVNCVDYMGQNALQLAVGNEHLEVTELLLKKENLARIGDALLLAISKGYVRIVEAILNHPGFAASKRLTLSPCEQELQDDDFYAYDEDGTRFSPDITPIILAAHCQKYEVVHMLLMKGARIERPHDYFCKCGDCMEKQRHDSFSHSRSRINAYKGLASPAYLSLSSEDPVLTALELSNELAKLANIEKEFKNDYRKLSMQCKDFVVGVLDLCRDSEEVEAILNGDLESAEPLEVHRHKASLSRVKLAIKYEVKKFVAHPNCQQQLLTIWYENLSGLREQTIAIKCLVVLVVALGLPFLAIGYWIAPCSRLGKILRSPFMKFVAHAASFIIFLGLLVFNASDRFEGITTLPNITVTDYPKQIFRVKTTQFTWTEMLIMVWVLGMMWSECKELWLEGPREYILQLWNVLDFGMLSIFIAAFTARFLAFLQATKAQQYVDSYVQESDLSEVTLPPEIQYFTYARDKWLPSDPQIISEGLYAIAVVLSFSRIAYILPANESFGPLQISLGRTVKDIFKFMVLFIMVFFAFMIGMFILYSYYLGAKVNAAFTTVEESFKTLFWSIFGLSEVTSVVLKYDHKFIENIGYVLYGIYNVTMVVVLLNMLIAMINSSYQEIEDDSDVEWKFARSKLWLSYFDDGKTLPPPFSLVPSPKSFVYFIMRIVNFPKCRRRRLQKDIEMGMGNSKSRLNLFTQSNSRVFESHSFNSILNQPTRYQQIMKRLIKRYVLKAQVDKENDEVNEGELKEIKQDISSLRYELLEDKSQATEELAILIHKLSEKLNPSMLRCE
In this section, each of the compounds is paired with its reported log10(IC50).
quantity-measured: log10(IC50) (log10 of the value in nM)

>  <compound>
N#Cc1ccc(OC2CC(c3ccc(F)cc3)CC2N2CC(N)CC(F)C2)nn1 (centres unmarked)

>  <tgt>
human TRPC3 ion channel (Homo sapiens (Human))

>  <log10(IC50)>
0.86

$$$$
>  <compound>
N#Cc1cnn(C2CC(c3ccc(F)cc3)CC2N2CCCC(N)C2)c1 (centres unmarked)

>  <tgt>
human TRPC3 ion channel (Homo sapiens (Human))

>  <log10(IC50)>
0.92

$$$$
>  <compound>
N#Cc1ccn(C2CC(c3ccc(F)cc3)CC2N2CCCC(N)C2)n1 (centres unmarked)

>  <tgt>
human TRPC3 ion channel (Homo sapiens (Human))

>  <log10(IC50)>
1.67

$$$$
>  <compound>
N#Cc1ccc(OC2CC(c3ccccc3)CC2N2CCCC(N)C2)c(Cl)c1 (centres unmarked)

>  <tgt>
human TRPC3 ion channel (Homo sapiens (Human))

>  <log10(IC50)>
1.86

$$$$
>  <compound>
N#Cc1ccc(OC2CC(c3ccc(F)cc3)CC2N2CCC[C@@H](N)C2)nc1 (single isomer, unassigned)

>  <tgt>
human TRPC3 ion channel (Homo sapiens (Human))

>  <log10(IC50)>
1.41

$$$$
>  <compound>
N[C@@H]1CCCN([C@H]2C[C@@H](c3ccc(F)cc3)C[C@@H]2Oc2cc(F)cnn2)C1

>  <tgt>
human TRPC3 ion channel (Homo sapiens (Human))

>  <log10(IC50)>
2.32

$$$$
>  <compound>
NC1CC(F)CN(C2CC(c3ccc(F)cc3)CC2Oc2ccncn2)C1 (centres unmarked)

>  <tgt>
human TRPC3 ion channel (Homo sapiens (Human))

>  <log10(IC50)>
0.57

$$$$
>  <compound>
N#Cc1cnc(OC2CC(c3ccc(F)cc3)CC2N2CCCC(N)C2)nc1 (centres unmarked)

>  <tgt>
human TRPC3 ion channel (Homo sapiens (Human))

>  <log10(IC50)>
1.38

$$$$
